test target: Dipeptidyl peptidase 4 (Rattus norvegicus)
assay summary: Ex vivo inhibition of DPP4 in Sprague-Dawley rats plasma at 1 mg/kg, po after 10 hrs
Assay type: organism-based
Parameters: dose 1 mg/kg
The entries below come with measured inhibition values attached.
measure name: inhibition (%)

>>> assay_result("C[C@@H]1N[C@H](C(=O)N2CCC[C@H]2C#N)C[C@@H]1C(=O)N1CCC1")
88
>>> assay_result("CN(C)C(=O)[C@@H]1CN[C@H](C(=O)N2CCC[C@H]2C#N)C1")
52
>>> assay_result("C[C@@H]1N[C@H](C(=O)N2CCC[C@H]2C#N)C[C@@H]1C(=O)N1CCOCC1")
85
>>> assay_result("CCCNC(=O)[C@@H]1CN[C@H](C(=O)N2CCC[C@H]2C#N)C1")
21
>>> assay_result("N#C[C@@H]1CCCN1C(=O)[C@@H]1C[C@H](C(N)=O)CN1")
20
>>> assay_result("CCN(C)C(=O)[C@H]1C[C@@H](C(=O)N2CCC[C@H]2C#N)N[C@H]1C")
79
>>> assay_result("C[C@@H]1N[C@H](C(=O)N2CCC[C@H]2C#N)C[C@@H]1C(=O)N1CCCCC1")
81
>>> assay_result("CNC(=O)[C@@H]1CN[C@H](C(=O)N2CCC[C@H]2C#N)C1")
28
>>> assay_result("CCNC(=O)[C@@H]1CN[C@H](C(=O)N2CCC[C@H]2C#N)C1")
19
>>> assay_result("C[C@@H]1N[C@H](C(=O)N2CCC[C@H]2C#N)C[C@@H]1C(=O)N1CCSCC1")
85
>>> assay_result("N#C[C@@H]1CCCN1C(=O)[C@@H]1C[C@H](C(=O)N2CCOCC2)CN1")
44
>>> assay_result("CCN(C)C(=O)[C@@H]1CN[C@H](C(=O)N2CCC[C@H]2C#N)C1")
34
>>> assay_result("C[C@@H]1N[C@H](C(=O)N2CCC[C@H]2C#N)C[C@@H]1C(=O)N1Cc2ccccc2C1")
77
>>> assay_result("N#C[C@@H]1CCCN1C(=O)[C@@H]1C[C@H](C(=O)N2CCCC2)CN1")
40

====

test target: UniProt:P14740
assay summary: Ex vivo inhibition of DPP4 in Sprague-Dawley rats plasma at 1 mg/kg, po after 12 hrs
Format: organism-based
Set-up: dose 1 mg/kg
measure name: inhibition

>>> assay_result("C[C@@H]1N[C@H](C(=O)N2CCC[C@H]2C#N)C[C@@H]1C(=O)N(C)C")
"81%"
>>> assay_result("C[C@@H]1N[C@H](C(=O)N2CCC[C@H]2C#N)C[C@@H]1C(=O)N1CCCC1")
"82%"
>>> assay_result("CCN(C)C(=O)[C@H]1C[C@@H](C(=O)N2CCC[C@H]2C#N)N[C@H]1C")
"74%"
>>> assay_result("C[C@@H]1N[C@H](C(=O)N2CCC[C@H]2C#N)C[C@@H]1C(=O)N1Cc2ccccc2C1")
"71%"
>>> assay_result("CN(C)C(=O)[C@@H]1CN[C@H](C(=O)N2CCC[C@H]2C#N)C1")
"24%"

====

Entries and their inhibition values follow.
test target: Dipeptidyl peptidase 4 (Rattus norvegicus)
assay summary: Ex vivo inhibition of DPP4 in Sprague-Dawley rats plasma at 1 mg/kg, po after 10 hrs
Type: organism-based
Design: dose 1 mg/kg
measure name: inhibition (%)

>>> assay_result("C[C@@H]1N[C@H](C(=O)N2CCC[C@H]2C#N)C[C@@H]1C(=O)N1CCCC1")
88
>>> assay_result("N#C[C@@H]1CCCN1C(=O)[C@@H]1C[C@H](C(=O)N2CCC2)CN1")
46
>>> assay_result("N#C[C@@H]1CCCN1C(=O)[C@@H]1C[C@H](C(=O)N2CCSCC2)CN1")
19
>>> assay_result("N#C[C@@H]1CCCN1C(=O)[C@@H]1C[C@H](C(=O)N2CCCCC2)CN1")
50
>>> assay_result("C[C@@H]1N[C@H](C(=O)N2CCC[C@H]2C#N)C[C@@H]1C(=O)N(C)C")
84

====

test target: Dipeptidyl peptidase 4 (Rattus norvegicus) (UniProt P14740)
Sequence (P14740 whole entry, looked up): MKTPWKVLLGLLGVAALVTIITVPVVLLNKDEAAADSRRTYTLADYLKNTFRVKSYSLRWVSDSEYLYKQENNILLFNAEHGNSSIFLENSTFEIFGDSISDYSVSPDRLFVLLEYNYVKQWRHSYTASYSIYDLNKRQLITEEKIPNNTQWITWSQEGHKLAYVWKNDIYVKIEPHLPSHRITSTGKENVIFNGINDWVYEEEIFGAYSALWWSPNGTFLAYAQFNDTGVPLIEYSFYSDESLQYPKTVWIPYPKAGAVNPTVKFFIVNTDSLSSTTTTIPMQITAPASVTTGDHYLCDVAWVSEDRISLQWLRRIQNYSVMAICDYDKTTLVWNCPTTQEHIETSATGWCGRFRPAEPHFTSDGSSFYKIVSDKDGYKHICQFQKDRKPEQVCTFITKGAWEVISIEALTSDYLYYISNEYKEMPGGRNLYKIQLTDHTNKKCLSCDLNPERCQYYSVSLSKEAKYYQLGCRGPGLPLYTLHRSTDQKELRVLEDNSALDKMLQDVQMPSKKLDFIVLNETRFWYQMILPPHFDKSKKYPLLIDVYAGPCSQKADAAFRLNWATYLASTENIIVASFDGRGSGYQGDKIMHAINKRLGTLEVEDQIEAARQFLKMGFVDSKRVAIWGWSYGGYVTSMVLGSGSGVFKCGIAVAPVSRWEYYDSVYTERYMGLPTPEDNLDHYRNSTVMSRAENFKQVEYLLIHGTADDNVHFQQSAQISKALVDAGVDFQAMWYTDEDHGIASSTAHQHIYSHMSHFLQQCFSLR
assay summary: Ex vivo inhibition of DPP4 in Sprague-Dawley rat plasma at 1 mg/kg, po after 6 hrs
Assay type: organism-based
Parameters: dose 1 mg/kg
measure name: inhibition (%)

>>> assay_result("N#C[C@@H]1CCCN1C(=O)[C@@H]1C[C@H](C(=O)N2CCSCC2)CN1")
72
>>> assay_result("N#C[C@@H]1CCCN1C(=O)[C@@H]1C[C@H](C(=O)N2CCCCCC2)CN1")
68
>>> assay_result("CCN(C)C(=O)[C@@H]1CN[C@H](C(=O)N2CCC[C@H]2C#N)C1")
71
